- protocol: Plasma kinetics in rat following intravenous and oral administration
- Assay type: in vivo, Sprague Dawley rats
- condition info: male, Sprague Dawley, rat, plasma, iv, 10 mg/kg, intravenous 10 mg/kg, male rats, Geometric mean; read-out: t1/2 (mean apparent terminal half-life) (converted)
quantity kind: half-life (h)

compound	unit symbol	half-life
N=C(N)NN=CC=Cc1cccn1-c1ccccc1Br [Compound 3, acetate]	h	3.14

A = N=C(N)NN=CC=Cc1cccn1-c1ccc(Cl)cc1 [Compound 1, acetate]
B = N=C(N)NN=CC=Cc1cccn1-c1ccccc1[N+](=O)[O-] [Compound 2, acetate]
Query block: Which of the two gives a bigger number for half-life: A or B ? Kindly state the label of the option you pick.
Result block: A
(A: 5.7 h, B: 3.25 h)

====

- protocol: Plasma kinetics in rat following intravenous and oral administration
- Type: in vivo, Sprague Dawley rats
- condition info: male, Sprague Dawley, rat, plasma, po, 10 mg/kg, oral 10 mg/kg, male rats; read-out: apparent terminal half-life (converted)
quantity kind: half-life (h)

compound	half-life (h)
N=C(N)NN=CC=Cc1cccn1-c1ccccc1Br [Compound 3, acetate]	3.3

1 = N=C(N)NN=CC=Cc1cccn1-c1ccc(Cl)cc1 [Compound 1, acetate]
2 = N=C(N)NN=CC=Cc1cccn1-c1ccccc1[N+](=O)[O-] [Compound 2, acetate]
Query block: Compare 1 and 2 and name the one whose reported half-life is smaller. Indicate your choice by writing its label.
Result block: 2

====

- protocol: Plasma kinetics in rat following intravenous and oral administration
- Assay type: in vivo, Sprague Dawley rats
- condition info: male, Sprague Dawley, rat, plasma, po, 10 mg/kg, single oral 10 mg/kg, male rats, 1.5 h, mean of 3; read-out: Mean Concentration in plasma
quantity kind: concentration at 1.5 h (ng/mL)

compound	unit symbol	readout value
N=C(N)NN=CC=Cc1cccn1-c1ccccc1Br [Compound 3, acetate]	ng/mL	39.2

a = N=C(N)NN=CC=Cc1cccn1-c1ccc(Cl)cc1 [Compound 1, acetate]
b = N=C(N)NN=CC=Cc1cccn1-c1ccccc1[N+](=O)[O-] [Compound 2, acetate]
Query block: Input pair: a , b . Output: entry with lower concentration at 1.5 h. Lab note: record the label of whichever item you select.
Result block: b

====

- protocol: Plasma kinetics in rat following intravenous and oral administration
- Assay type: in vivo, Sprague Dawley rats
- condition info: male, Sprague Dawley, rat, plasma, iv, 10 mg/kg, single intravenous 10 mg/kg, male rats, 2.5 h, mean of 3; read-out: Mean Concentration in plasma
quantity kind: concentration at 2.5 h (ng/mL)

molecule	concentration at 2.5 h / ng/mL
N=C(N)NN=CC=Cc1cccn1-c1ccc(Cl)cc1 [Compound 1, acetate]	233
N=C(N)NN=CC=Cc1cccn1-c1ccccc1Br [Compound 3, acetate]	251
N=C(N)NN=CC=Cc1cccn1-c1ccccc1[N+](=O)[O-] [Compound 2, acetate]	191

====

- protocol: Plasma kinetics in rat following intravenous and oral administration
- Format: in vivo, Sprague Dawley rats
- condition info: male, Sprague Dawley, rat, plasma, iv, 10 mg/kg, intravenous 10 mg/kg, male rats, individual animals; read-out: t1/2 (converted)
- Method: This study determined the intravenous pharmacokinetics and oral bioavailability of compound 1 of the invention (see FIG. 1A, structure no. 1), compound 2 of the invention (see FIG. 1D, structure no. 19) and compound 3 of the invention (see FIG. 1I, structure no. 53) following administration to Sprague Dawley rats at a dose level of 10 mg/kg. […]
quantity kind: half-life (h)

1 = N=C(N)NN=CC=Cc1cccn1-c1ccc(Cl)cc1 [Compound 1, acetate]
2 = N=C(N)NN=CC=Cc1cccn1-c1ccccc1[N+](=O)[O-] [Compound 2, acetate]
Query block: From the items above, decide which of 1 and 2 has the lower half-life reading. To answer, give the label that identifies your chosen option.
Result block: 2

====

- protocol: Plasma kinetics in rat following intravenous and oral administration
- Type: in vivo, Sprague Dawley rats
- condition info: male, Sprague Dawley, rat, plasma, iv, 10 mg/kg, intravenous 10 mg/kg, male rats, individual animals; read-out: Vss
quantity kind: Vd (L/kg)

molecule	quantity kind	readout value
N=C(N)NN=CC=Cc1cccn1-c1ccccc1[N+](=O)[O-] [Compound 2, acetate]	Vd	20.6
N=C(N)NN=CC=Cc1cccn1-c1ccccc1Br [Compound 3, acetate]	Vd	13.2
N=C(N)NN=CC=Cc1cccn1-c1ccc(Cl)cc1 [Compound 1, acetate]	Vd	17.9

====

- protocol: Plasma kinetics in rat following intravenous and oral administration
- Type: in vivo, Sprague Dawley rats
- condition info: male, Sprague Dawley, rat, plasma, iv, 10 mg/kg, single intravenous 10 mg/kg, male rats, 2.5 h, individual animals; read-out: Sample Concentration in plasma
quantity kind: concentration at 2.5 h (ng/mL)

molecule	readout value
N=C(N)NN=CC=Cc1cccn1-c1ccccc1Br [Compound 3, acetate]	240
N=C(N)NN=CC=Cc1cccn1-c1ccccc1[N+](=O)[O-] [Compound 2, acetate]	195
N=C(N)NN=CC=Cc1cccn1-c1ccc(Cl)cc1 [Compound 1, acetate]	239

====

- protocol: Plasma kinetics in rat following intravenous and oral administration
- Format: in vivo, Sprague Dawley rats
- condition info: male, Sprague Dawley, rat, plasma, iv, 10 mg/kg, single intravenous 10 mg/kg, male rats, 0.1 h, individual animals; read-out: Sample Concentration in plasma
quantity kind: concentration at 0.1 h (µg/mL)

compound	quantity kind	readout value
N=C(N)NN=CC=Cc1cccn1-c1ccccc1Br [Compound 3, acetate]	concentration at 0.1 h	0.978

a = N=C(N)NN=CC=Cc1cccn1-c1ccc(Cl)cc1 [Compound 1, acetate]
b = N=C(N)NN=CC=Cc1cccn1-c1ccccc1[N+](=O)[O-] [Compound 2, acetate]
Query block: concentration at 0.1 h comparison. Which is larger, a or b ? Answer = label.
Result block: b
(b: 1.59 µg/mL, a: 0.941 µg/mL)

====

- protocol: Plasma kinetics in rat following intravenous and oral administration
- Type: in vivo, Sprague Dawley rats
- condition info: male, Sprague Dawley, rat, plasma, po, 10 mg/kg, single oral 10 mg/kg, male rats, 6 h, individual animals; read-out: Sample Concentration in plasma
quantity kind: concentration at 6 h (ng/mL)

compound	unit symbol	readout value
N=C(N)NN=CC=Cc1cccn1-c1ccccc1Br [Compound 3, acetate]	ng/mL	70.4

a = N=C(N)NN=CC=Cc1cccn1-c1ccc(Cl)cc1 [Compound 1, acetate]
b = N=C(N)NN=CC=Cc1cccn1-c1ccccc1[N+](=O)[O-] [Compound 2, acetate]
Query block: Between these two entries, a and b , state which has the higher concentration at 6 h. Returns: label corresponding to the selected item.
Result block: a

====

- protocol: Plasma kinetics in rat following intravenous and oral administration
- Format: in vivo, Sprague Dawley rats
- condition info: male, Sprague Dawley, rat, plasma, po, 10 mg/kg, oral 10 mg/kg, male rats, Geometric mean; read-out: t1/2 (converted)
quantity kind: half-life (h)

1 = N=C(N)NN=CC=Cc1cccn1-c1ccccc1Br [Compound 3, acetate]
2 = N=C(N)NN=CC=Cc1cccn1-c1ccccc1[N+](=O)[O-] [Compound 2, acetate]
Query block: Please state the entry with greater half-life among 1 and 2 . State the label of the item chosen.
Result block: 1

====

- protocol: Plasma kinetics in rat following intravenous and oral administration
- Type: in vivo, Sprague Dawley rats
- condition info: Sprague Dawley, rat, plasma; 10 mg/kg oral vs intravenous, male rats, from mean AUC0-t; read-out: Mean absolute oral bioavailability
quantity kind: bioavailability (%)

1 = N=C(N)NN=CC=Cc1cccn1-c1ccc(Cl)cc1 [Compound 1, acetate]
2 = N=C(N)NN=CC=Cc1cccn1-c1ccccc1[N+](=O)[O-] [Compound 2, acetate]
3 = N=C(N)NN=CC=Cc1cccn1-c1ccccc1Br [Compound 3, acetate]
Query block: Ordering criterion: bioavailability; begin with the maximum. Form entry: labels listed in requested order.
Result block: 1, 3, 2

====

- protocol: Plasma kinetics in rat following intravenous and oral administration
- Assay type: in vivo, Sprague Dawley rats
- condition info: male, Sprague Dawley, rat, plasma, iv, 10 mg/kg, intravenous 10 mg/kg, male rats, Median; read-out: t1/2 (converted)
- Description: This study determined the intravenous pharmacokinetics and oral bioavailability of compound 1 of the invention (see FIG. 1A, structure no. 1), compound 2 of the invention (see FIG. 1D, structure no. 19) and compound 3 of the invention (see FIG. 1I, structure no. 53) following administration to Sprague Dawley rats at a dose level of 10 mg/kg. […]
quantity kind: half-life (h)

I = N=C(N)NN=CC=Cc1cccn1-c1ccc(Cl)cc1 [Compound 1, acetate]
II = N=C(N)NN=CC=Cc1cccn1-c1ccccc1[N+](=O)[O-] [Compound 2, acetate]
Query block: Given the two records I and II , choose the one whose half-life value is lower. // respond with label for picked entry
Result block: II

====

- protocol: Plasma kinetics in rat following intravenous and oral administration
- Assay type: in vivo, Sprague Dawley rats
- condition info: male, Sprague Dawley, rat, plasma, iv, 10 mg/kg, single intravenous 10 mg/kg, male rats, 0.75 h, individual animals; read-out: Sample Concentration in plasma
- Experimental: This study determined the intravenous pharmacokinetics and oral bioavailability of compound 1 of the invention (see FIG. 1A, structure no. 1), compound 2 of the invention (see FIG. 1D, structure no. 19) and compound 3 of the invention (see FIG. 1I, structure no. 53) following administration to Sprague Dawley rats at a dose level of 10 mg/kg. […]
quantity kind: concentration at 0.75 h (ng/mL)

molecule	concentration at 0.75 h [ng/mL]
N=C(N)NN=CC=Cc1cccn1-c1ccc(Cl)cc1 [Compound 1, acetate]	441

1 = N=C(N)NN=CC=Cc1cccn1-c1ccccc1[N+](=O)[O-] [Compound 2, acetate]
2 = N=C(N)NN=CC=Cc1cccn1-c1ccccc1Br [Compound 3, acetate]
Query block: // returns 1 or 2 , whichever has the lower concentration at 0.75 h // return label of chosen record
Result block: 1

Origin of values: patent US8058306B2
